- EXPERIMENTAL TARGET: RXRα (Homo sapiens, UniProt P19793)
- Sequence (P19793 223-462): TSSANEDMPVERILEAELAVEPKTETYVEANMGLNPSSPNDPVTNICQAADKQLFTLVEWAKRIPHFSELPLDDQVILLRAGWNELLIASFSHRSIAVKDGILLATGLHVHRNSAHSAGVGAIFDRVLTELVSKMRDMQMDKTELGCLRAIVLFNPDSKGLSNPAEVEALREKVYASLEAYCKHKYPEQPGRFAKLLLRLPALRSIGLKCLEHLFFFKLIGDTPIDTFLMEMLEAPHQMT
READOUT NAME: Kd
Please make sure the unit comes right after the number.

Query string: I have this molecule here, C/C(=N/O)c1sc(-n2nc(-c3ccccc3)cc2-c2ccccc2)nc1C , and I need its recorded Kd.
Result string: 15.7 µM
